Molecular target: Histone deacetylase 1/11/4/6/8
Assay: HDAC Activity screening
Assay Metric: IC50

| Mol Smiles | Recorded Value |
| --- | --- |
| O=C(CCCCn1cc(C(=O)Nc2nc3ccccc3s2)c(=O)c2cc(F)ccc21)NO | 39 nM |
| COc1ccc2c(c1)c(=O)c(C(=O)Nc1ccccc1)cn2CCCCC(=O)NO | 32 nM |
| COc1ccc(CNC(=O)c2cn(CCCCC(=O)NO)c3ccccc3c2=O)cc1 | 410 nM |
| O=C(CCCCn1cc(C(=O)NCc2ccccc2)c(=O)c2ccccc21)NO | 120 nM |
